Can you tell me fold change of Cadaverine concentration for the items I'm about to list?
# System: Klebsiella aerogenes DSM 30053
# runDescription: fold change of Cadaverine concentration vs plate DMSO controls (fold change (ratio)); higher = more amine produced, active = hit call of the paper (significant change in both replicates, either direction)
# statedConditions: incubation time: 27 h, anaerobic, 37 °C
Counter-ions that a name gives are not always drawn.
One number for each entry.

Use the examples below as a reference point.
Cc1c(C)c2c(c(C)c1O)CCC(C)(C(=O)O)O2 (configuration not stated) [Trolox] (20 µM) | 0.984
CC(C)n1c(/C=C/C(O)CC(O)CC(=O)O)c(-c2ccc(F)cc2)c2ccccc21 (configuration not stated) [Fluvastatin sodium salt] (20 µM) | 1.03
C/C(=C(\CCOP(=O)(O)O)SC(=O)c1ccccc1)N(C=O)Cc1cnc(C)nc1N [Benfotiamine] (20 µM) | 1
Cc1onc(-c2ccccc2Cl)c1C(=O)N[C@@H]1C(=O)N2[C@@H]1SC(C)(C)[C@@H]2C(=O)O [Cloxacillin sodium salt] (20 µM) | 1.02

Please give fold change of Cadaverine concentration, item by item, for the list that follows.
1. O=C(Nc1ccc([N+](=O)[O-])cc1Cl)c1cc(Cl)ccc1O [Niclosamide] (20 µM)
2. C[C@H]1C[C@H]2[C@@H]3CCC4=CC(=O)C=C[C@]4(C)[C@@]3(F)[C@@H](O)C[C@]2(C)[C@@]1(O)C(=O)CO [Betamethasone] (20 µM)
3. OCCN1CCN(CCCN2c3ccccc3C=Cc3ccccc32)CC1 [Opipramol dihydrochloride] (20 µM)

Result:
[0.992, 1.02, 0.98]

###

# Tested on: Escherichia coli IAI1
# runDescription: fold change of Cadaverine concentration vs plate DMSO controls (fold change (ratio)); higher = more amine produced, active = hit call of the paper (significant change in both replicates, either direction)
# statedConditions: incubation time: 27 h, anaerobic, 37 °C
Where a name gives a salt, the structure may show the parent alone.
Can you tell me fold change of Cadaverine concentration for the items I'm about to list?
One number for each entry.

Please give fold change of Cadaverine concentration, item by item, for the list that follows.
1. COc1ccc(OC)c(C(O)CNC(=O)CN)c1 (centres undefined) [Midodrine hydrochloride] (20 µM)
2. Cc1ccc(Nc2c(F)cccc2Cl)c(CC(=O)O)c1 [Lumiracoxib] (20 µM)
3. Cn1cc([S+](C)[O-])c(=O)c2ccc(F)cc21 (centres undefined) [Flosequinan] (20 µM)
4. OC[C@@H](O)[C@@H](O)CO [Erythritol] (50 µM)
5. N[C@@H](C(=O)N[C@@H]1C(=O)N2C(C(=O)O)=C(Cl)CC[C@H]12)c1ccccc1 [Loracarbef] (20 µM)
6. COc1cc(N)c(Cl)cc1C(=O)NC1CCN(CCCOc2ccc(F)cc2)CC1OC (centres undefined) [Cisapride] (20 µM)
7. C#C[C@]1(OC(C)=O)CC[C@H]2[C@@H]3CCC4=C[C@@H](OC(C)=O)CC[C@@H]4[C@H]3CC[C@@]21C [Ethynodiol diacetate] (20 µM)

Result:
1. 0.995
2. 1.02
3. 1.04
4. 1.05
5. 1.52
6. 1.02
7. 1.09

###

# System: Escherichia coli IAI1
# runDescription: fold change of Putrescine concentration vs plate DMSO controls (fold change (ratio)); higher = more amine produced, active = hit call of the paper (significant change in both replicates, either direction)
# statedConditions: incubation time: 27 h, anaerobic, 37 °C
Structures can show the parent of a compound that is named as a salt.
Can you tell me fold change of Putrescine concentration for the items I'm about to list?
Numbers only.

CCc1nn(CCCN2CCN(c3cccc(Cl)c3)CC2)c(=O)n1CCOc1ccccc1 [Nefazodone hydrochloride] (20 µM) | 0.996
CC(C)c1nc(CN(C)C(=O)N[C@H](C(=O)N[C@@H](Cc2ccccc2)C[C@H](O)[C@H](Cc2ccccc2)NC(=O)OCc2cncs2)C(C)C)cs1 [Ritonavir] (20 µM) | 0.943

# input for lookup
Q: Form field: reported fold change of Putrescine concentration of O=C1CCc2ccc(OCCCCN3CCN(c4cccc(Cl)c4Cl)CC3)cc2N1 [Aripiprazole] (20 µM)
Result: 1.03
